test: p53 small molecule agonists, cell-based qHTS assay with human liver microsomes (AID 1963577); settings: HCT-116 p53RE-bla with human liver microsomes, ratio, 16 h; series mostly up to 66 µM;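 further: p53 response element beta-lactamase reporter cells with liver microsomes plus NADPH; on the % scale 0 is the no-effect control and ±100 the full control effect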
Results filed as inconclusive are left out. Calls of active or inactive are those of the source. The call rests on the fitted dose curve.
quantity: activation

The following compounds have reported results that may help.
Clc1cccc(Cl)n1: inactive
COc1cc(NS(=O)(=O)c2ccc(N)cc2)nc(C)n1: inactive
CS(=O)(=O)CCNCc1ccc(-c2ccc3ncnc(Nc4ccc(OCc5cccc(F)c5)c(Cl)c4)c3c2)o1: inactive
C[C@](N)(Cc1ccc(O)cc1)C(=O)O: 3.02% [at 5.99 µM] (inactive)

Query block: Report activation for c1ccc2occc2c1 please.
Result block: inactive

Query block: Report activation for C[C@H](CCC(=O)O)[C@H]1CC[C@H]2[C@@H]3[C@H](O)C[C@@H]4C[C@H](O)CC[C@]4(C)[C@H]3CC[C@]12C please.
Result block: inactive

Query block: Report activation for COC(=O)[C@@H](N)Cc1ccc(O)c(O)c1 please.
Result block: inactive

Query block: Report activation for CC(CN(C)C)CN1c2ccccc2CCc2ccccc21 (stereo unspecified) please.
Result block: inactive

Query block: Report activation for CCCC(=O)OC(C)(C)Cc1ccccc1 please.
Result block: inactive

Entry source: PubChem BioAssay (Tox21)
